system name: Voltage-gated inwardly rectifying potassium channel KCNH2 (Homo sapiens)
assay summary: qHTS Assay for Small Molecule Inhibitors of the Human hERG Channel Activity (AID 588834);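 note: lower thallium flux fluorescence means stronger hERG block; nearly all actives have a fitted effect of over 50% in size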
condition info: U2OS BacMam hERG, FluxOR thallium flux fluorescence; series mostly up to 46.1 µM
Results filed as inconclusive are left out. Active and inactive are the calls of the source. Calls come from the whole dose curve; as a rule, active = well fitted inhibition curve with a large enough effect; inconclusive = small, poorly fitted or top-dose-only effect; inactive = flat fitted curve, though single readings scatter.
Respond using exactly one of the listed classes: label 1 (active), label 0 (inactive)

// below: answered compounds
O=[N+]([O-])c1cccc2cn[nH]c12 ... label 0
O=C(O)c1ccccc1Nc1ccccc1 ... label 0
O=C1NC(=O)c2cc(Nc3ccccc3)c(Nc3ccccc3)cc21 ... label 1
COc1ccc(C(=O)NCc2cccnc2)cc1C(=O)NCc1cccnc1 ... label 0
O=C(O)C1CN(CCCP(=O)(O)O)CCN1 (stereo unspecified) ... label 0

Could you check what this test reported for C#CC(N)CCC(=O)O (stereo unspecified) ? label 0

What is the recorded call for this compound in the test? COCc1nc2c([nH]1)c(=O)n(C)c(=O)n2CC(C)C label 0

Which outcome was assigned to CC(C)C[C@H](NC(=O)[C@H](O)[C@H](N)Cc1ccccc1)C(=O)O in this test? label 0

Which outcome was assigned to O=c1[nH]c2ccccc2c2ccccc12 in this test? label 0

Call for entry Nc1ncnc2c1ncn2C1CCCC1 : label 0

So what was the verdict on NC(N)=NC(N)=Nc1ccccc1 in this test? label 0

Could you kindly confirm the outcome this assay logged for NCC(O)c1ccc(O)c(O)c1 (stereo unspecified) ? label 0
